Hello, the source for this data is ChEMBL document CHEMBL5370550, in case you need it.

MEASURED_TARGET: Replicase polyprotein 1ab (Severe acute respiratory syndrome coronavirus 2) (UniProt P0DTD1)
CONDITIONS: dose 5.0 µM, time 30.0 min, values are per cent of control
Entries annotated with measured residual activity
Value expressed in %; do not type the unit.

Return the recorded residual activity value; entry: `COc1ccc(S(=O)(=O)N(C)C[C@H]2O[C@@H](n3cc(C#Cc4cnc5ccccc5c4)c4c(N)ncnc43)[C@H](O)[C@@H]2O)cc1[N+](=O)[O-]` 0

Further cases:
Return the recorded residual activity value; entry: `CCN(C[C@H]1O[C@@H](n2cnc3c(NC)ncnc32)[C@H](O)[C@@H]1O)S(=O)(=O)c1ccc(C)c(Cl)c1` 8.3

Return the recorded residual activity value; entry: `CCN(C[C@H]1O[C@@H](n2cnc3c(NC)ncnc32)[C@H](O)[C@@H]1O)S(=O)(=O)c1ccc(OC)c([N+](=O)[O-])c1` 10.3

Return the recorded residual activity value; entry: `CNc1ncnc2c1ncn2[C@@H]1O[C@H](CNS(=O)(=O)c2ccc(C)c(Cl)c2)[C@@H](O)[C@H]1O` 45.4

Return the recorded residual activity value; entry: `CCN(C[C@H]1O[C@@H](n2cnc3c(NC)ncnc32)[C@H](O)[C@@H]1O)S(=O)(=O)c1ccc(Br)c([N+](=O)[O-])c1` 15.2

Return the recorded residual activity value; entry: `CN(C[C@H]1O[C@@H](n2cc(C#Cc3ccccc3)c3c(N)ncnc32)[C@H](O)[C@@H]1O)S(=O)(=O)c1ccc(Br)c([N+](=O)[O-])c1` 5

Return the recorded residual activity value; entry: `Cc1ccc(S(=O)(=O)N(C)C[C@H]2O[C@@H](n3cc(C#Cc4ccccc4)c4c(N)ncnc43)[C@H](O)[C@@H]2O)cc1Cl` 7

* * *

MEASURED_TARGET: Nonstructural protein 5 (Dengue virus) (UniProt V5TFZ2)
Sequence (V5TFZ2 as listed by the source): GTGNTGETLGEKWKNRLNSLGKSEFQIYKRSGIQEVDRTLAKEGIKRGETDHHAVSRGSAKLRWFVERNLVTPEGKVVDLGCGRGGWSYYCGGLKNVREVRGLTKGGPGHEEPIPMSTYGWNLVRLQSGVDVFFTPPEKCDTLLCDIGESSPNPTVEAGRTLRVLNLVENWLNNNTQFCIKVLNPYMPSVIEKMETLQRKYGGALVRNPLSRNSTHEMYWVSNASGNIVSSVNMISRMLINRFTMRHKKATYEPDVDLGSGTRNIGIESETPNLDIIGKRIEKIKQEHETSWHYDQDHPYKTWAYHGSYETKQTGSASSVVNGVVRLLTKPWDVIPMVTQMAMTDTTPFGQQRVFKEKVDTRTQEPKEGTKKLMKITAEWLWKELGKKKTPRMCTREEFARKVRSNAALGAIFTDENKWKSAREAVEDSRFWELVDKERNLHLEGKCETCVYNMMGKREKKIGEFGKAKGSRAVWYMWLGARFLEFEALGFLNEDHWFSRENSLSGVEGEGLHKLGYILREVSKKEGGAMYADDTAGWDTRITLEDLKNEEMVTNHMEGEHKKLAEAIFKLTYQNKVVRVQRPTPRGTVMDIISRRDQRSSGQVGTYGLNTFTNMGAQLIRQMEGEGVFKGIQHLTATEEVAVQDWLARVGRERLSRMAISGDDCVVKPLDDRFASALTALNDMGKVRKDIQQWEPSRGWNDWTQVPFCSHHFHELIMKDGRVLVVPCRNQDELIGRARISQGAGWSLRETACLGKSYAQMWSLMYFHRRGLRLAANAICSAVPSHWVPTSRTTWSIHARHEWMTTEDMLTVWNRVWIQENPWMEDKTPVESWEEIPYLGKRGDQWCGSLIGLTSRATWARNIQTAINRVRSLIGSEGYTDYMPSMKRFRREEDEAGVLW
CONDITIONS: dengue virus type 3; dose 5.0 µM, time 30.0 min
Active and inactive are the calls of the source. No cut-off for these calls is given here.
MEASUREMENT_KIND: inhibition

These recorded examples may help you get a feel for the data.
Return the recorded inhibition value; entry: `CN(C[C@H]1O[C@@H](n2cc(C#Cc3cnc4ccccc4c3)c3c(N)ncnc32)[C@H](O)[C@@H]1O)S(=O)(=O)c1ccc(Br)c([N+](=O)[O-])c1` inactive

Return the recorded inhibition value; entry: `CCN(C[C@H]1O[C@@H](n2cnc3c(NC)ncnc32)[C@H](O)[C@@H]1O)S(=O)(=O)c1ccc(C)c(Cl)c1` inactive

Return the recorded inhibition value; entry: `CN(C[C@H]1O[C@@H](n2cc(C#Cc3ccccc3)c3c(N)ncnc32)[C@H](O)[C@@H]1O)S(=O)(=O)c1ccc(Br)c([N+](=O)[O-])c1` 96.9%

Return the recorded inhibition value; entry: `COc1ccc(S(=O)(=O)N(C)C[C@H]2O[C@@H](n3cc(C#Cc4ccccc4)c4c(N)ncnc43)[C@H](O)[C@@H]2O)cc1[N+](=O)[O-]` 91.6%

Return the recorded inhibition value; entry: `CNc1ncnc2c1ncn2[C@@H]1O[C@H](CNS(=O)(=O)c2ccc(OC)c([N+](=O)[O-])c2)[C@@H](O)[C@H]1O` inactive

From here, focus on the item given below.
Return the recorded inhibition value; entry: `CCN(C[C@H]1O[C@@H](n2cnc3c(NC)ncnc32)[C@H](O)[C@@H]1O)S(=O)(=O)c1ccc(C)c([N+](=O)[O-])c1` 97.1%
